The measurements presented in this section are drawn from paper PMC9736855.

Target: CDK2 (Homo sapiens, UniProt P24941)
Construct: purchased in-house DSF panel (SGC Frankfurt)
Assay: DSF
Type: binding
Conditions: 10 μM compound
Result Type: ΔTm at 10 µM (°C)
// note: answer is a bare numeric in °C

Past entries and their recorded results:
CC(C)(C)OC(=O)NCCc1ccc(Nc2nccc(Nc3cc(C(C)(C)C)n[nH]3)n2)cc1 [40a]: 5.8
CC(C)(C)OC(=O)NCCOCCNc1nccc(Nc2cc(C3CC3)n[nH]2)n1 [11d]: 6.3
CC(C)(C)c1cc(Nc2ccnc(Nc3ccc(CC#N)cc3)n2)[nH]n1 [40c]: 10.7
COC(=O)c1cc(Nc2ccnc(NCCCCCCNC(=O)OC(C)(C)C)n2)[nH]n1 [21e]: 6.5
N#CCc1ccc(Nc2nccc(Nc3cc(C4CC4)[nH]n3)n2)cc1 [compound 1, reference compound]: 15.2
Cc1cnc(Nc2cccc(CCNC(=O)OC(C)(C)C)c2)nc1Nc1cc(C2CC2)n[nH]1 [12b]: 4.7
CNC(=O)c1cc(Nc2ccnc(NCCCCCNC(=O)OC(C)(C)C)n2)[nH]n1 [41b]: 1.2
CC(C)(C)OC(=O)NCCCCCNc1nccc(Nc2cc(C(C)(C)C)n[nH]2)n1 [40b]: 4.3

Query (compound): COC(=O)c1cc(Nc2ccnc(NCCCCCNC(=O)OC(C)(C)C)n2)[nH]n1 [21c] ; field requested: ΔTm at 10 µM
5.6

Quick check: ΔTm at 10 µM of COC(=O)c1cc(Nc2nc(NCCCCCNC(=O)OC(C)(C)C)nc3ccccc23)[nH]n1 [23c] ?
1.3

I have this compound here, CC(C)c1cc(Nc2ccnc(NCCCCCNC(=O)OC(C)(C)C)n2)[nH]n1 [39b] , and I need its recorded ΔTm at 10 µM.
9.5

# get_value(readout='ΔTm at 10 µM', item= CC(C)(C)OC(=O)NCCCCCNc1nccc(Nc2cc(C3CC3)[nH]n2)n1 [11c] )
10.4

Looking for the measured ΔTm at 10 µM of Cc1cnc(NCCOCCNC(=O)OC(C)(C)C)nc1Nc1cc(C2CC2)n[nH]1 [12d] , can you help?
5.3

Quick one: ΔTm at 10 µM for COC(=O)c1cc(Nc2ccnc(Nc3cccc(CCNC(=O)OC(C)(C)C)c3)n2)[nH]n1 [21b] ?
4.6

---

Target: MAP2K7 (Homo sapiens, UniProt O14733)
Construct: purchased in-house DSF panel (SGC Frankfurt)
Sequence (O14733 120-380): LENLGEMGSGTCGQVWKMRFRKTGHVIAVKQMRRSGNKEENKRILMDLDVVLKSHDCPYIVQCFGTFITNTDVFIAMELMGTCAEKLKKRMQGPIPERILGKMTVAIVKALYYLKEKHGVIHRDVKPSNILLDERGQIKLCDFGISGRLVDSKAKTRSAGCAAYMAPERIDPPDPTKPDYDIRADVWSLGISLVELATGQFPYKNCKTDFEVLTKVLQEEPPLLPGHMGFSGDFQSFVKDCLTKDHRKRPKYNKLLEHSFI
Test: DSF
Format: binding
# key: entry, value: ΔTm MAP2K7
Numbers only here, please. The scale is °C.

# count of solved cases: 3
CC(C)OC(=O)c1cc(Nc2ccnc(NCc3ccc(NC(=O)OC(C)(C)C)cc3)n2)n[nH]1 [42d]: -0.3
CC(C)(C)OC(=O)Nc1ccc(CNc2nccc(Nc3cc(C(=O)OC(C)(C)C)[nH]n3)n2)cc1 [43d]: -3.0
CN[C@@H]1C[C@H]2O[C@@](C)([C@@H]1OC)n1c3ccccc3c3c4c(c5c6ccccc6n2c5c31)C(=O)NC4 [staurosporine, reference compound]: 8.4

Hello, I am looking for reported ΔTm MAP2K7 with MAP2K7 (Homo sapiens, UniProt O14733) for N#CCc1ccc(Nc2nccc(Nc3cc(C4CC4)[nH]n3)n2)cc1 [compound 1, reference compound] . Could you help?
12.0

API: value(readout= ΔTm MAP2K7, system= MAP2K7 (Homo sapiens, UniProt O14733), query= COC(=O)c1cc(Nc2ccnc(NCCOCCNC(=O)OC(C)(C)C)n2)[nH]n1 [21d] )
0.7

GET /values?readout=ΔTm MAP2K7&system=MAP2K7 (Homo sapiens, UniProt O14733)&item= COC(=O)c1cc(Nc2ccnc(NCc3ccc(NC(=O)OC(C)(C)C)cc3)n2)[nH]n1 [21i]
0.5

---

Reported values of ΔTm at 10 µM for individual entries
Molecular target: CDK2 (Homo sapiens)
Construct: purchased in-house DSF panel (SGC Frankfurt)
Test: DSF
Type: binding
Details: 10 μM compound
The reply should be a number in °C, with the unit left off.

COC(=O)c1cc(Nc2ccnc(NCCOCCNC(=O)OC(C)(C)C)n2)[nH]n1 [21d]: 1.9
CC(C)(C)OC(=O)Nc1ccc(CNc2nccc(Nc3cc(C(=O)OC(C)(C)C)[nH]n3)n2)cc1 [43d]: 3.2
COC(=O)c1cc(Nc2ccnc(NCc3ccc(N)cc3)n2)n[nH]1 [compound 25]: 5.1
CC(C)(C)OC(=O)NCCCCCNc1ncc(Cl)c(Nc2cc(C3CC3)n[nH]2)n1 [13c]: 5.1

Request body: readout ΔTm at 10 µM, system CDK2 (Homo sapiens), query COC(=O)c1cc(Nc2nc(Nc3ccc(CCNC(=O)OC(C)(C)C)cc3)ncc2Cl)[nH]n1 [22a] . Return the value.
2

Missing value: ΔTm at 10 µM, CDK2 (Homo sapiens), entry COC(=O)c1cc(Nc2ccnc(NCc3ccc(NC(=O)OC(C)(C)C)cc3)n2)[nH]n1 [21i] . Fill in?
3.3

Request: ΔTm at 10 µM, test system CDK2 (Homo sapiens), entry COC(=O)c1cc(Nc2nc(Nc3ccc(CCNC(=O)OC(C)(C)C)cc3)nc3ccccc23)[nH]n1 [23a]
-0.1

Enter reported ΔTm at 10 µM observed with CDK2 (Homo sapiens) for CC(C)OC(=O)c1cc(Nc2ccnc(NCc3ccc(NC(=O)OC(C)(C)C)cc3)n2)n[nH]1 [42d]
3

---

Target: PAK1 (Homo sapiens)
Construct: purchased in-house DSF panel (SGC Frankfurt)
Sequence (Q13153 249-545): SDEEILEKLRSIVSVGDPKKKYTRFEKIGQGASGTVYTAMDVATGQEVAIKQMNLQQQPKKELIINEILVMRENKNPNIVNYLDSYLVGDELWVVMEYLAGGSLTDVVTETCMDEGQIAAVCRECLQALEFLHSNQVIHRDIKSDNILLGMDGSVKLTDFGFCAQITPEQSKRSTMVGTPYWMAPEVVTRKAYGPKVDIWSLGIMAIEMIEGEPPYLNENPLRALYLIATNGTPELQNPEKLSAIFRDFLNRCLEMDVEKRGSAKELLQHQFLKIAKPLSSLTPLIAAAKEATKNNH
Assay: DSF
Type: binding
Result Type: ΔTm PAK1

Param item = N#CCc1ccc(Nc2nccc(Nc3cc(C4CC4)[nH]n3)n2)cc1 [compound 1, reference compound] ; retrieve measured ΔTm PAK1.
3.3 °C

State the recorded ΔTm PAK1 for this entry: COC(=O)c1cc(Nc2ccnc(NCCOCCNC(=O)OC(C)(C)C)n2)[nH]n1 [21d]
1.1 °C

Could you share which ΔTm PAK1 value was measured for CN[C@@H]1C[C@H]2O[C@@](C)([C@@H]1OC)n1c3ccccc3c3c4c(c5c6ccccc6n2c5c31)C(=O)NC4 [staurosporine, reference compound] ?
6.6 °C

Requested field: ΔTm PAK1. Item: COC(=O)c1cc(Nc2ccnc(NCc3ccc(NC(=O)OC(C)(C)C)cc3)n2)[nH]n1 [21i]
-0.4 °C

Param item = CC(C)OC(=O)c1cc(Nc2ccnc(NCc3ccc(NC(=O)OC(C)(C)C)cc3)n2)n[nH]1 [42d] ; retrieve measured ΔTm PAK1.
-1.1 °C

# query: ΔTm PAK1 of entry CC(C)(C)OC(=O)Nc1ccc(CNc2nccc(Nc3cc(C(=O)OC(C)(C)C)[nH]n3)n2)cc1 [43d]
-0.6 °C

---

Biological target: PIM3 (Homo sapiens, UniProt Q86V86);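 note: compound tested at 10 µM with 2 µM protein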
Construct: purchased in-house DSF panel (SGC Frankfurt)
Test: DSF
Assay type: binding
Friendly reminder: ΔTm PIM3 below -0.4 °C is yes, at or above is no.

Observe how each entry below is paired with its result.
N#CCc1ccc(Nc2nccc(Nc3cc(C4CC4)[nH]n3)n2)cc1 [compound 1, reference compound]: no
CC(C)(C)OC(=O)Nc1ccc(CNc2nccc(Nc3cc(C(=O)OC(C)(C)C)[nH]n3)n2)cc1 [43d]: yes
COC(=O)c1cc(Nc2ccnc(NCCOCCNC(=O)OC(C)(C)C)n2)[nH]n1 [21d]: no

With those in mind, consider the next molecule.
Field: below-cutoff. Rule: recorded ΔTm PIM3 strictly less than -0.4 °C. Subject: CC(C)OC(=O)c1cc(Nc2ccnc(NCc3ccc(NC(=O)OC(C)(C)C)cc3)n2)n[nH]1 [42d]
yes

---

Biological target: BMP2K (Homo sapiens)
Construct: purchased in-house DSF panel (SGC Frankfurt)
Sequence (Q9NSY1 38-345): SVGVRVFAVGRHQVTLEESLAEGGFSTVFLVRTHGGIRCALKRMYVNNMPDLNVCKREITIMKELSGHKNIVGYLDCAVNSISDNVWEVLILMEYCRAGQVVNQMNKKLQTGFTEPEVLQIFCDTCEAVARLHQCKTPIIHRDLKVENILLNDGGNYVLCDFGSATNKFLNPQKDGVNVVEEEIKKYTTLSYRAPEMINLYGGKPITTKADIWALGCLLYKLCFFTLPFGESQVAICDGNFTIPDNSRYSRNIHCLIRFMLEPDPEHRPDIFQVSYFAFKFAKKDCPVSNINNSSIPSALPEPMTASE
Assay: DSF
Type: binding
Result Type: ΔTm BMP2K (°C)
Number only, in °C; omit the unit.

Which ΔTm BMP2K is listed for CN[C@@H]1C[C@H]2O[C@@](C)([C@@H]1OC)n1c3ccccc3c3c4c(c5c6ccccc6n2c5c31)C(=O)NC4 [staurosporine, reference compound] ?
19.1

Requested field: ΔTm BMP2K. Item: COC(=O)c1cc(Nc2ccnc(NCc3ccc(NC(=O)OC(C)(C)C)cc3)n2)[nH]n1 [21i]
2.8

So what's the measured ΔTm BMP2K for this one? CC(C)OC(=O)c1cc(Nc2ccnc(NCc3ccc(NC(=O)OC(C)(C)C)cc3)n2)n[nH]1 [42d]
1.4

Record request: ΔTm BMP2K value, item CC(C)(C)OC(=O)Nc1ccc(CNc2nccc(Nc3cc(C(=O)OC(C)(C)C)[nH]n3)n2)cc1 [43d]
1.7

Recorded ΔTm BMP2K for N#CCc1ccc(Nc2nccc(Nc3cc(C4CC4)[nH]n3)n2)cc1 [compound 1, reference compound] , please?
18.8

Need ΔTm BMP2K, item COC(=O)c1cc(Nc2ccnc(NCCOCCNC(=O)OC(C)(C)C)n2)[nH]n1 [21d]
5.7
